For each of the compounds below, state its log10 EC50.
Molecular target: Ba/F3-Syk cells (Homo sapiens)
Construct: fused on or other part: Possible but unprinted fusion partner: TEL (ETV6), the usual partner for Ba/F3 lines transformed by Syk; Nothing on a partner is printed
Experiment: Ba/F3 Proliferation Assay, Ba/F3-Syk cells (Resazurin)
Assay type: cell-based
Conditions: 48-hour incubation
Log scale reminder: EC50 in nM, then log10 taken.

Return reported log10 EC50 values for all items listed beneath this line.
1. C[C@@H]1CNC[C@@H](COc2cc(-c3cnn(C)c3)cc3nccnc23)O1
2. CC(C)n1ccc(-c2cc(OC[C@@H]3CNCC4(CC4)O3)c3nccnc3c2)c1
3. CC(C)n1cc(-c2cc3ncccc3c(OC[C@@H]3CNCCO3)n2)cn1
4. CCn1ccc(-c2cc3ncccc3c(OC[C@@H]3CNCC(C)(C)O3)n2)c1
5. FC1(F)CC(Cn2cc(-c3cc4ncccc4c(OC[C@@H]4CNCCO4)n3)cn2)C1

1.71
1.34
1.58
1.33
1.78

Kindly give each listed record's log10 EC50.
1. FC(F)Cn1cc(-c2cc(OC[C@@H]3CNCCCO3)c3cccnc3c2)cn1
2. FC(F)n1cc(-c2cc3ncccc3c(OC[C@@H]3CNCCO3)n2)cn1
3. Cn1ccc(-c2cc3ncccc3c(OC[C@@H]3CN[C@@H]4C[C@@H]4O3)n2)c1 (relative stereo)

1. 1.99
2. 2.14
3. 3.12

Values were extracted from patent US20250263408A1.
